- Measured target: Recombinant human his-tagged IGF 1R extracellular domain protein (human) (UniProt P08069)
- Test description: SPR, captured antibody, dissociation at pH 6
Catalogue of koff values
Give a bare numeral; the unit s⁻¹ is implied.

VRDN-03115 (antibody, V domains shown) VH: QVQLVESGGGVVQPGRSLRLSCAASGFTFSDHYMDWVRQAPGKGLEWVAIIWFDGSSKYYPGSVKGRFTISRDNSKNTLYLQMNSLRAEDTAVYYCARELGRRYFDIWGRGTLVTVSS VL: EIVMTQSPATLSVSPGERATLSCRASQGVSSYLAWYQQKPGQAPRLLIYGASTRATGIPARFSGSGSGTEFTLTISSLQSEDFAVYYCQQRSRWPPWTFGQGTKLEIK | 0.000297
VRDN-03054 (antibody, V domains shown) VH: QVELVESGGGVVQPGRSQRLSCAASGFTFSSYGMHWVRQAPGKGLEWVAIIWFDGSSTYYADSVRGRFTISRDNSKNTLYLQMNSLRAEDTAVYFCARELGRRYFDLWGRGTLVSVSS VL: EIVLTQSPATLSLSPGERATLSCRASQSVSSYLAWYQQKPGQAPRLLIYDASKRHTGIPARFSGSGSGTDFTLTISSLEPEDFAVYYCQQRSKWPPWTFGQGTKVESK | 8.18e-05
VRDN-03098 (antibody, V domains shown) VH: QVQLVESGGGVVQPGRSLRLSCAASGFTFSSYSMHWVRQAPGKGLEWVAIIWFDGSSKYYADSVKGRFTISRDNSKNTLYLQMNSLRAEDTAVYYCARELGRRYFDIWGRGTLVTVSS VL: EIVLTQSPATLSLSPGERATLSCRASQGVSSYLAWYQQKPGQAPRLLIYGASTRATGIPARFSGSGSGTDFTLTISSLEPEDFAVYYCQQRSRWPPWTFGQGTKLEIK | 0.000306

Problem: Need koff of VRDN-03053 (antibody, V domains shown) VH: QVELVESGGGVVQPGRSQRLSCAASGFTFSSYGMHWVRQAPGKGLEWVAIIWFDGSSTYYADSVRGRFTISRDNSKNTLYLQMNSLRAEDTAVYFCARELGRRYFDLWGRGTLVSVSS VL: EIVLTQSPATLSLSPGERATLSCRASQSVSSYLAWYQQKPGQAPRLLIYDASKHATGIPARFSGSGSGTDFTLTISSLEPEDFAVYYCQQRSKWPPWTFGQGTKVESK , thanks.
Solution: 0.00016

Problem: Need koff of VRDN-03049 (antibody, V domains shown) VH: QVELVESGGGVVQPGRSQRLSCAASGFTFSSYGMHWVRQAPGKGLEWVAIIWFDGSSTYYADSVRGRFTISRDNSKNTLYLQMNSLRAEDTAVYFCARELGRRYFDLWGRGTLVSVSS VL: EIVLTQSPATLSLSPGERATLSCRASQSVSSYLAWYQQKPGQAPRLLIYHASKRATGIPARFSGSGSGTDFTLTISSLEPEDFAVYYCQQRSKWPPWTFGQGTKVESK , thanks.
Solution: 0.000201
